Kindly state mortality at 50 ppm for each of the entries shown.
tested on: Plutella xylostella; assay: Example B4: Plutella xylostella (diamond back moth), artificial diet, eggs; format: in vivo; details: Concentration 50 ppm; Plutella xylostella (Example B4)
Form field: result (number plus unit)

Enquiry: Which mortality at 50 ppm is reported for this molecule? CC(NC(=O)c1cc(Cl)cc(C(F)(F)F)c1)c1nccnc1-c1cnccn1 (stereo not shown)
Return: 100%

Enquiry: Also CC(NC(=O)c1cc(Cl)cc(C(F)(F)F)c1)c1nccnc1-c1ccccn1 (stereo not shown) [Example 1 of WO 2021/068179, reference compound] ?
Return: 0%

Enquiry: Also CC(NC(=O)c1cc(C2CC2)cc(C(F)(F)F)c1)c1nccnc1-c1ccccn1 (stereo not shown) [P33 of WO 2020/201398, reference compound] ?
Return: 50%

Enquiry: Also CC(NC(=O)c1cc(C2CC2)cc(C(F)(F)F)c1)c1nccnc1-c1cnccn1 (stereo not shown) ?
Return: 100%
